Each record here notes measured IC50.
# assay-target: hERG (Homo sapiens, UniProt Q12809)
# Sequence (Q12809 whole entry): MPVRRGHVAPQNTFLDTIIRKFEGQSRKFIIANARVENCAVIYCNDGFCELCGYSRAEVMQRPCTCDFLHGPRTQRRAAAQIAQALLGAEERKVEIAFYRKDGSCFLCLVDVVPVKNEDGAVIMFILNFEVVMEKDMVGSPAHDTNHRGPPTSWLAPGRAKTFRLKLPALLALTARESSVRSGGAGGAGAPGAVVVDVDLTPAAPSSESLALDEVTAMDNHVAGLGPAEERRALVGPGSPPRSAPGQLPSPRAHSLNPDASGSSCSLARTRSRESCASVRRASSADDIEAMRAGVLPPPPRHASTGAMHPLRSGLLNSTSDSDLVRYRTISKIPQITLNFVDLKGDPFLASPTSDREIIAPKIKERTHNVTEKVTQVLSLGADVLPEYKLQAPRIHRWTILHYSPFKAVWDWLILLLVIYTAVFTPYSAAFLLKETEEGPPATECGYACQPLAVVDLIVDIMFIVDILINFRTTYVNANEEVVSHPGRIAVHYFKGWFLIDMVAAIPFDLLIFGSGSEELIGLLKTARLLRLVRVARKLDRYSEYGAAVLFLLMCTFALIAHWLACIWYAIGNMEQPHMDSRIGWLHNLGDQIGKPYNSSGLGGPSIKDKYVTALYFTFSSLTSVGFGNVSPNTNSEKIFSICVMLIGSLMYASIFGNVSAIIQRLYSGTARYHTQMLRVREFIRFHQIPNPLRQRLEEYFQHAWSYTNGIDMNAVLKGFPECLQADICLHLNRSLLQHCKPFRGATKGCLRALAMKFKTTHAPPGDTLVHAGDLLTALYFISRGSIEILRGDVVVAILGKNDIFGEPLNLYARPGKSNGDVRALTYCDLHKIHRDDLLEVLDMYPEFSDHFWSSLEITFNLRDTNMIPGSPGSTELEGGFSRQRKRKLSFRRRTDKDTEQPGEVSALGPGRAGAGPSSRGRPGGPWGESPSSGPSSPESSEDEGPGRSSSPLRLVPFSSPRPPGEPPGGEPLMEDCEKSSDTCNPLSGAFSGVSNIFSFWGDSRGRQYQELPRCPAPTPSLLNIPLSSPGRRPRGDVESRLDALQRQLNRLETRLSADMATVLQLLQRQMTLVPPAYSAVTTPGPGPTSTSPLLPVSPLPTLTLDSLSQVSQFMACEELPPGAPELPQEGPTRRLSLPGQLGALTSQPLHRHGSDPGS
# test-description: cell-based
# stated-conditions: (-LOG10(IC50), µM)
Structures can show the parent of a compound that is named as a salt.
Give the value in µM but do not write µM after it.

Solved entries:
CN(C)CCOc1ccccc1Cc1ccccc1 [Phenyltoloxamine citrate] :: 8.49
O=C(COc1ccc(Cl)cc1)N1CCN(Cc2ccc3c(c2)OCO3)CC1 [Fipexide hydrochloride] :: 16.1
CN1CCN(c2ccccc2/C=C2\SCCN(c3ccc(Cl)c(Cl)c3)C2=O)CC1 :: 1.61

// switching to the query compound
Prompt: IC50 for CCCCCCCCCCCCCCCCn1cc[n+](C)c1 [1-Hexadecyl-3-methylimidazolium chloride] ?
Completion: 14.1

###

# assay-target: hERG (Homo sapiens)
# test-description: cell-based
# stated-conditions: (-LOG10(IC50), µM)
Structures can show the parent of a compound that is named as a salt.
In plain terms, low IC50, meaning strictly below 9 µM, gives rule met, and everything else gives rule not met.

Reference set (7 entries):
C=C(C)CN(CC)c1c([N+](=O)[O-])cc(C(F)(F)F)cc1[N+](=O)[O-] :: rule not met
c1ccc(OCc2ccc(CCCN3CCOCC3)cc2)cc1 :: rule not met
CC[C@]12CCCN3CCc4c(n(c5ccccc45)[C@@](O)(C(=O)OC)C1)[C@@H]32 :: rule met
O=C1C=CC(=O)c2ccccc21 :: rule not met
CC(C(O)c1ccccc1)N(C)CCOC(c1ccccc1)c1ccccc1 (stereo not drawn) :: rule met
CCOP(=S)(Oc1ccc([N+](=O)[O-])cc1)c1ccccc1 (stereo not drawn) :: rule met
CC(Cc1cccc(C(F)(F)F)c1)NCCOC(=O)c1ccccc1 (stereo not drawn) [Benfluorex hydrochloride] :: rule not met

Attention now turns to another entry.
Prompt: Given CCOC(=O)C(C)Oc1ccc(Oc2cnc3cc(Cl)ccc3n2)cc1 (stereo not drawn) , is recorded IC50 strictly lower than 9 µM?
Completion: rule not met

###

# assay-target: UniProt Q12809
# test-description: cell-based
# stated-conditions: (-LOG10(IC50), µM)
measurement-label: log10 of IC50 (log10 of the value in µM)
The base-10 logarithm of IC50, taken with IC50 in µM, is what appears here.

Solved entries:
CCCCCC(C)OC(=O)COc1ccc(Cl)c2cccnc12 (stereo not drawn) :: 1.21
CC1C2CC(CC2C2CCCC(O)C2)C1(C)C (stereo not drawn) :: 1.36
CCCSSC(CCO)=C(C)N(C=O)Cc1cnc(C)nc1N :: 1.03
Oc1ccc(C(c2ccc(O)cc2)C(Cl)(Cl)Cl)cc1 :: 1.74
CC=O :: 0.73

Prompt: log10 of IC50 for Cc1cccc(Oc2ccccc2)c1 ?
Completion: 1.38

Prompt: log10 of IC50 for Nc1ccc(Oc2ccc(Cl)cc2)cc1 ?
Completion: 1.61

Prompt: log10 of IC50 for NCc1cccc(C2CCN(C(=O)c3ccc(C#Cc4ccccc4F)o3)CC2)c1 ?
Completion: 0.99

Prompt: log10 of IC50 for Cc1nccn1-c1ccc(Sc2cccc(C3(C(N)=O)CCOCC3)c2)cc1 ?
Completion: 1.67

###

Each record here notes measured IC50.
# assay-target: UniProtKB Q12809
# test-description: cell-based
# stated-conditions: (-LOG10(IC50), µM)
Give the value in µM but do not write µM after it.

Solved entries:
C=CCC1=C(C)[C@@H](OC(=O)[C@@H]2[C@@H](C=C(C)C)C2(C)C)CC1=O [S-Bioallethrin] :: 23.6
O=C(CCS)OCC(COC(=O)CCS)(COC(=O)CCS)COC(=O)CCS :: 33.4
O=C(CCCN1CCN(c2ccc(F)cc2)CC1)NC1c2ccccc2CSc2ccccc21 (centres unmarked) [Monatepil] :: 2.01
CCCCC(CC)COC(=O)c1ccc(O)cc1 (centres unmarked) [2-Ethylhexyl p-hydroxybenzoate] :: 24.5

// switching to the query compound
Prompt: IC50 for COc1ccc(C(=O)c2ccc(C)cc2)c(O)c1 [Mexenone] ?
Completion: 45.9
